Entries annotated with measured OD450 at 0.002 µg/mL
Target: T1, PD-1 protein (human, UniProt Q15116 25-167, limits assumed)
T1 construct: also called human PD-1
T1 sequence (Q15116 25-167 limits assumed): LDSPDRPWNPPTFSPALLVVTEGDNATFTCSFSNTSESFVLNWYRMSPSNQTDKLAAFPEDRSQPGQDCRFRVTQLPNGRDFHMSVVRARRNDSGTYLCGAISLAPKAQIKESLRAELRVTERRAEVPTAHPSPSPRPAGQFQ
Test: ELISA, PD-1 coated
Description: 2 μg/ml of PD-1 protein is coated on 96-well plates overnight for ELISA binding assay. Recombinant VHH-FC proteins are added to the wells and allowed to stand for a period of time, then 1 μg/ml of HRP-conjugated anti-FC antibody is added as detection antibody and the assay reagents are added. The absorbance is read at 450 nm. Binding of nivolumab serves as a positive control and plates coated with BSA are used as the negative control group.
Give a bare numeral; the unit OD450 is implied.

Recorded OD450 at 0.002 µg/mL, per entry:
{"binder": "504#SS29 (Fc fusion, not shown: a dimerising Fc or GST; small tags and cut ends, VHH-FC construct from HEK293 cells) VHH: QVQLVESGGGLVQAGGSLRLSCAASGRTFSGYTMGWFRRAPGKERELIANILWNSARRYYADSVKGRFTISRDNAMNTVDLQMNSLKPEDTAVYYCAVLVDSTYRFSNQGTQVTVSS", "unit_info": "OD450", "OD450 at 0.002 µg/mL": 0.04}
{"binder": "504#SS14 (Fc fusion, not shown: a dimerising Fc or GST; small tags and cut ends, VHH-FC construct from HEK293 cells) VHH: QVQLVESGGGLVQPGGSLRLSCVASGFTFSSYWMYWVRQAPGKGLEWVSAIDTTGGSTAYTHSVKGRFTISRDNARNTLYLQMNNLKSEDTAVYYCANSTYFNDDPEYDRWGQGTQVTVSS", "unit_info": "OD450", "OD450 at 0.002 µg/mL": 0.04}
{"binder": "504#SS13 (Fc fusion, not shown: a dimerising Fc or GST; small tags and cut ends, VHH-FC construct from HEK293 cells) VHH: EVQVVESGGGSVQPGGSLRLSCAASGRGFTEHAMGWYRQSPGKEREFVAGISSGGSTYYADSVKGRFTVSRDSAGNTVALQMDSLKPEDTAVYYCSYKRGRYPDGVSTLEYWGQGTQVTVSS", "unit_info": "OD450", "OD450 at 0.002 µg/mL": 0.03}

Now for another entry.
Prompt line: Which value of OD450 at 0.002 µg/mL has been reported for 504#SS9 (Fc fusion, VHH-FC construct from HEK293 cells; not shown: The (G4S)3 linker leading to it is left out with it) VHH: EVQLQESGGGLVQAGGSLRLSCAASGRSFSGYAMAWFRQAPGKEREFVAAVNWNGGSTYYADSVKGRFTISRDNAKDTVYLQMNSLKPEDTAVYYCNARPTFGAYYSDYKSGVDYWGQGTQVTVSS in the records?
Response line: 0.03
